Items are presented alongside their recorded growth.
# Test system: IGROV1 ovarian
# protocol: NCI-60 one-dose screen, 48 h (100 = growth as untreated, 0 = no growth, -100 = all killed)
# applied-conditions: 10 µM
Compounds without any hit were thinned out: in the full panel of roughly 83,000, 20% have a hit.
Write down the numeric answer in % and omit the unit.

[[record]]
compound = "CCN1CCN(c2ccc(Nc3ncnc4c3nnn4CCc3cc(OC)cc(OC)c3)cc2)CC1"
reading = 111


(Q) GET /values?readout=growth&system=IGROV1 ovarian&item= C[N+]1(CC2CO2)CCCCCC1 (stereo unspecified)
(A) 112

(Q) GET /values?readout=growth&system=IGROV1 ovarian&item= `COc1ccc(/C(CS(=O)(=O)c2ccccc2)=N\O)cc1`
(A) 109

(Q) GET /values?readout=growth&system=IGROV1 ovarian&item= `NC(=O)c1ccc(Br)o1`
(A) 107

(Q) GET /values?readout=growth&system=IGROV1 ovarian&item= `O=C(Nc1cccc(Cl)c1)Nc1cc2ncncc2cc1OCc1cccc(F)c1`
(A) 19

(Q) GET /values?readout=growth&system=IGROV1 ovarian&item= `Cn1c(N)c(N=Cc2ccccc2)c(=O)n(C)c1=O`
(A) 106

----------
# Test system: SF-268 CNS
# protocol: NCI-60 one-dose screen, 48 h
# applied-conditions: 10 µM
This is part of a sample that, as a whole, favours compounds with a hit. Of some 83,000 tested, about 20% had one in any assay. The source made the active and inactive calls. The calls were made as follows: active = growth percent below 10; inactive = the rest.
I would appreciate it if you answered using one of these outcomes: yes (1) for active, no (0) for inactive

Consider the worked cases shown below.
[[record]]
compound_smiles = "O=C(/C=C/c1nnc2n(Cc3ccccc3)c(=O)c3c4c(sc3n12)CCCC4)c1ccccc1"
tested_system = "SF-268 CNS"
group_label = "no (0)"

[[record]]
compound_smiles = "CC(C)OCc1cc(CN2CCN(c3cccc(Cl)c3)CC2)c(O)c2ncccc12"
tested_system = "SF-268 CNS"
group_label = "yes (1)"

[[record]]
compound_smiles = "O=c1cc(CSc2nnc(-c3ccccc3)n2-c2ccc(F)cc2)c2ccc3ccccc3c2o1"
tested_system = "SF-268 CNS"
group_label = "no (0)"

[[record]]
compound_smiles = "COc1ccc(C(=O)n2nc(CC(=O)NCc3ccccc3)nc2N)cc1"
tested_system = "SF-268 CNS"
group_label = "no (0)"


Attention now shifts to the item below.
(Q) Which outcome was entered for the molecule `CCc1cc2n(n1)-c1ncc(C(=O)OC)cc1Oc1ccccc1-2` in this test?
(A) no (0)

----------
Items are presented alongside their recorded growth.
# System: A498 renal
# protocol: NCI-60 one-dose screen, 48 h (100 = growth as untreated, 0 = no growth, -100 = all killed)
# applied-conditions: 10 µM
Compounds without any hit were thinned out: in the full panel of roughly 83,000, 20% have a hit.
Write down the numeric answer in % and omit the unit.

[[record]]
compound = "COc1cc(Cn2c(-c3ccccc3)c(Cl)c3c2-c2oncc2CC3)cc(OC)c1"
readout_type = "growth"
reading = 26.5

[[record]]
compound = "Cc1ccc(C(=O)O)c(N)c1C"
readout_type = "growth"
reading = 108

[[record]]
compound = "CCOC(=O)c1c(C)n(-c2ccc(Cl)cc2)c2ccc(OC(=O)/C=C/c3ccccc3)cc12"
readout_type = "growth"
reading = 68.7

[[record]]
compound = "Cc1ccc(S(=O)(=O)Oc2ccccc2-c2ccccc2)cc1"
readout_type = "growth"
reading = 6.79

[[record]]
compound = "CN(C)c1ccc2c(c1)OC(N)=C(C#N)C2c1ccc2c(c1)CCCN2C (stereo not given)"
readout_type = "growth"
reading = -8.42


(Q) For the compound `CCOC(=O)[C@@H]1[C@H](c2ccccc2)[C@H]([N+](=O)[O-])[C@H](c2cn(-c3ccccc3)nc2C)N1Cc1ccccc1` , what growth is on record?
(A) 97.6

(Q) For the compound `Cc1c(C(=O)N[C@H](CO)Cc2ccccc2)[nH]c2ccc(Cl)cc2c1=O` , what growth is on record?
(A) 98

(Q) For the compound `O=C(Nc1cccc(F)c1)Nc1cccc(Cl)c1` , what growth is on record?
(A) 36.7

(Q) For the compound `COC(=O)[C@]12CC[C@@H](C)[C@H](C)[C@@H]1C1=CC[C@@H]3[C@@]4(C)CC(=O)[C@H](O)[C@@](C)(CO)[C@@H]4C(=O)C[C@@]3(C)[C@]1(C)CC2` , what growth is on record?
(A) -11.3

(Q) For the compound `Cc1cc(C(C)(C)CC(C)(C)C)ccc1OCCOCC[N+](C)(C)Cc1ccccc1` , what growth is on record?
(A) 4.39
